- System: U2OS
- protocolSummary: Multiplex assay against U2OS
- Format: toxicity, cell-based
- assaySetup: human, 48 h, 1 µM, compound concentration 1 uM, replicate 1
Please go through the items and note down their Population Normal (%).
Supply the numeric figure in %, leaving out any unit text.

Qu. Entry `Cc1cc(C)c(S(=O)(=O)N(Cc2ccc(-c3cccc(S(C)(=O)=O)c3)cc2)Cc2ccc(C(F)(F)F)o2)c(C)c1` has what Population Normal (%)?
Ans. 96

Qu. What do we get for `CCn1c(=O)c(-c2ccc(-c3cncs3)cc2Cl)cc2cnc(Nc3ccc(N4CCN(C)CC4)cc3)nc21` ?
Ans. 96

Qu. What do we get for CN1CCC(=C2c3ccccc3CC(=O)c3sccc32)CC1.O=C(O)/C=C/C(=O)O [KETOTIFEN FUMARATE] ?
Ans. 95

Qu. What do we get for `Cl.Oc1ccc2c3c1O[C@H]1c4[nH]c5c(c4C[C@@]4(O)[C@@H](C2)N(CC2CC2)CC[C@]314)C[C@@]1(O)[C@H]2Cc3ccc(O)c4c3[C@@]1(CCN2CC1CC1)[C@H]5O4` ?
Ans. 96

Qu. What do we get for `O=C(Nc1ccc(-c2ccnc(Nc3ccc(N4CCOCC4)cc3)n2)cc1)[C@@H]1CCCN1` ?
Ans. 98

Qu. What do we get for CCCn1c(=O)c2[nH]c(-c3cnn(Cc4cccc(C(F)(F)F)c4)c3)nc2n(CC)c1=O [GS 6201] ?
Ans. 98

Qu. What do we get for Cc1cn(-c2cc(NC(=O)c3ccc(C)c(Nc4nccc(-c5cccnc5)n4)c3)cc(C(F)(F)F)c2)cn1 [NILOTINIB] ?
Ans. 96

Qu. What do we get for `O=C1N/C(=N/c2ccccc2F)S/C1=C\c1ccc(C(=O)O)cc1` ?
Ans. 98

Qu. What do we get for O=C(Cc1ccc(-c2ccc(OCCN3CCOCC3)cc2)cn1)NCc1ccccc1 [TIRBANIBULIN] ?
Ans. 90

Qu. What do we get for CN(C)C(=O)C(CCN1CCC(O)(c2ccc(Cl)cc2)CC1)(c1ccccc1)c1ccccc1.Cl [LOPERAMIDE HYDROCHLORIDE] ?
Ans. 93

Qu. What do we get for CN1C2CCC1CC(OC(c1ccc(F)cc1)c1ccc(F)cc1)C2.Cl (stereo unspecified) ?
Ans. 98

Qu. What do we get for `Cl.O=c1c2cccn2c2ccccc2n1CCCN1CCC(c2ccc(Cl)cc2)CC1` ?
Ans. 95

Qu. What do we get for O=C1NC(=O)C(c2cnc3ccccn23)=C1c1cn2c3c(cc(F)cc13)CN(C(=O)N1CCCCC1)CC2 [LY-2090314] ?
Ans. 96

Qu. What do we get for `CCc1cccc(CC)c1NC(=O)c1nn(C)c2c1CCc1cnc(Nc3ccc(C(=O)NC4CCN(C)CC4)cc3OC(F)(F)F)nc1-2` ?
Ans. 90

Qu. What do we get for CCOC(=O)c1c(C)[nH]c2ccc3c(c12)CN1CCc2cc(OC)ccc2C1O3 (stereo unspecified) ?
Ans. 97

Qu. What do we get for C=C1/C(=C\C=C2/CCC[C@]3(C)[C@@H]([C@H](C)/C=C/[C@H](C)C(C)C)CC[C@@H]23)C[C@@H](O)C[C@@H]1O [DOXERCALCIFEROL] ?
Ans. 97
